Listed here are compounds together with their documented MIC.
System: wild type of M.tb
Experiment: MIC, secondary screening, wild type
Format: cell-based, Mycobacterium tuberculosis
Settings: Mycobacterium tuberculosis, WT, value in brackets; read-out: MIC (or uM)
reported_metric: MIC (µM)

INSERT INTO measurements (compound, experimental_target, reported_metric, value_units, val) VALUES
  ('CC[C@@H](CO)NCCN[C@@H](CC)CO [EMB, Ethambutol, reference compound]', 'wild type of M.tb', 'MIC', 'µM', 11.1),
  ('C[C@@H]1[C@H]2C[C@@H](C[C@H]1NCCNC1CCCCCCC1)C2(C)C [Compound 59]', 'wild type of M.tb', 'MIC', 'µM', 0.13),
  ('CC(C)=CCC/C(C)=C/CNCCNC1C2CC3CC(C2)CC1C3 (stereo not shown) [Compound 109]', 'wild type of M.tb', 'MIC', 'µM', 0.18),
  ('CC1(C)C2CCC(CNCCNCC(c3ccccc3)c3ccccc3)[C@@H]1C2 (stereo partly shown) [RL 241]', 'wild type of M.tb', 'MIC', 'µM', 3.34);

* * *

Assay: in vivo
Parameters: species or system mice
Conditions: mouse, ip, 6 mg/kg
reported_metric: AUC

INSERT INTO assay_data (compound, val) VALUES
  ('C[C@@H]1[C@H]2C[C@@H](C[C@H]1NCCNC1CCCCCCC1)C2(C)C', '272 ng·h/mL'),
  ('CC1(C)C2CCC(CNCCNCC(c3ccccc3)c3ccccc3)[C@@H]1C2 (stereo partly drawn)', '1370 ng·h/mL'),
  ('CC(C)=CCC/C(C)=C/CNCCNC1C2CC3CC(C2)CC1C3 (stereo not drawn)', '1100 ng·h/mL');

* * *

Test system: H37Rv strain of Mycobacterium tuberculosis
Assay: microbe, parasite or virus in culture
Type: cell-based
Conditions: Mycobacterium tuberculosis, H37RV; read-out: MIC
Listed here are compounds together with their documented MIC.
reported_metric: MIC (µM)

INSERT INTO assay_data (compound, reported_metric, reading_qualifier, val) VALUES
  ('C=CCN(CCNCCc1ccccc1OC)C1CCCC1', 'MIC', '=', 62.5),
  ('CC(C)(C)CC(C)(C)NCCNCC(c1ccccc1)c1ccccc1', 'MIC', '=', 62.5),
  ('C1CCCC(NCCNCC23CC4CC(CC(C4)C2)C3)CCC1', 'MIC', '=', 15.6),
  ('CC(NCCNCC(c1ccccc1)c1ccccc1)C(O)c1ccc(O)c(O)c1 (centres unmarked)', 'MIC', '>', 500),
  ('CC(NCCNC1CCCCCCC1)c1cccc2ccccc12 (centres unmarked)', 'MIC', '=', 62.5);

* * *

Tested on: monkey kidney cells (Vero)
Experiment: In vitro toxicity, Vero cells
Assay type: cell-based
Settings: Primates
reported_metric: IC50

INSERT INTO assay_data (compound, experimental_target, val) VALUES
  ('CC(CNCC(c1ccccc1)c1ccccc1)NCC1CCC2C[C@@H]1C2(C)C (stereo partly shown)', 'monkey kidney cells (Vero)', '33 µM'),
  ('CC1(C)C2CCC(CNCCNC3CCCCCCC3)[C@@H]1C2 (stereo partly shown)', 'monkey kidney cells (Vero)', '22 µM'),
  ('c1ccc2c(c1)CC(NCCNC1C3CC4CC(C3)CC1C4)C2 (stereo not shown)', 'monkey kidney cells (Vero)', '130 µM'),
  ('COc1ccccc1CCNCCNC1C2CC3CC(C2)CC1C3 (stereo not shown)', 'monkey kidney cells (Vero)', '81 µM'),
  ('C1CCCC(NCCNC2C3CC4CC(C3)CC2C4)CCC1 (stereo not shown)', 'monkey kidney cells (Vero)', '82 µM'),
  ('C[C@@H]1C2C[C@@H](C[C@H]1NCCNCC(c1ccccc1)c1ccccc1)C2(C)C', 'monkey kidney cells (Vero)', '25 µM'),
  ('CC1(C)C2CCC(CNCCNCC(c3ccccc3)c3ccccc3)[C@@H]1C2 (stereo partly shown)', 'monkey kidney cells (Vero)', '32 µM'),
  ('C[C@@H]1C2C[C@@H](C[C@H]1NCCNCCC(c1ccccc1)c1ccccc1)C2(C)C', 'monkey kidney cells (Vero)', '28 µM'),
  ('CC1CCCC(NCCNC[C@@H]2CCC3C[C@@H]2C3(C)C)C1C (stereo partly shown)', 'monkey kidney cells (Vero)', '19 µM'),
  ('C1CCCC(NCCNCC23CC4CC(CC(C4)C2)C3)CCC1', 'monkey kidney cells (Vero)', '34 µM'),
  ('C[C@@H]1[C@H]2C[C@@H](C[C@H]1NCCNC1CCCCCCC1)C2(C)C', 'monkey kidney cells (Vero)', '36 µM'),
  ('CCC1CCCCN1CCNC/C=C(\C)CCC=C(C)C (stereo not shown)', 'monkey kidney cells (Vero)', '45 µM'),
  ('CC(C)=CCC/C(C)=C/CNCCNC1C2CC3CC(C2)CC1C3 (stereo not shown)', 'monkey kidney cells (Vero)', '26 µM');

* * *

Test system: cells
Test: LD50 for selectivity index (Table 10)
Format: cell-based, Mycobacterium tuberculosis
Details: concentration at which 50% of the cells are killed
Source text: Table 10 lists MIC and LD50 data for selected compounds. […] Table 11 lists MIC data for purified substituted ethylene diamines in comparison to ethambutol (EMB).
Listed here are molecules together with their documented LD50.
reported_metric: LD50 (µM)

INSERT INTO results (molecule, reported_metric, value_units, val) VALUES
  ('CC1(C)C2CCC(CNCCNCC(c3ccccc3)c3ccccc3)[C@@H]1C2 (stereo partly shown)', 'LD50', 'µM', 32),
  ('CCC1CCCCN1CCNC/C=C(\C)CCC=C(C)C (stereo not shown)', 'LD50', 'µM', 44),
  ('C[C@@H]1C2C[C@@H](C[C@H]1NCCNCC1CCC3C[C@@H]1C3(C)C)C2(C)C (stereo partly shown)', 'LD50', 'µM', 25),
  ('c1ccc(C(CNCCNCC23CC4CC(CC(C4)C2)C3)c2ccccc2)cc1', 'LD50', 'µM', 32),
  ('COc1ccccc1CCNCCN[C@@H]1C[C@@H]2CC([C@H]1C)C2(C)C', 'LD50', 'µM', 41),
  ('c1ccc(C2CC2NCCNC23CC4CC(CC(C4)C2)C3)cc1 (stereo not shown)', 'LD50', 'µM', 60),
  ('CC(C)=CCC/C(C)=C/CNCCNC1C2CC3CC(C2)CC1C3 (stereo not shown)', 'LD50', 'µM', 32),
  ('C[C@@H]1[C@H]2C[C@@H](C[C@H]1NCCNC1CCCCCCC1)C2(C)C', 'LD50', 'µM', 32),
  ('CC1(C)C2CCC(CNCCNC3CCCCCCC3)[C@@H]1C2 (stereo partly shown)', 'LD50', 'µM', 18),
  ('CC(CNCCC(c1ccccc1)c1ccccc1)NCC12CC3CC(CC(C3)C1)C2 (stereo not shown)', 'LD50', 'µM', 20);

* * *

Experiment: in vitro
Type: in vitro ADME
Conditions: plasma
reported_metric: fraction unbound at 2000 ng/ml

INSERT INTO results (compound, reported_metric, val) VALUES
  ('CC(C)=CCC/C(C)=C/CNCCNC1C2CC3CC(C2)CC1C3 (stereo not shown) [Compound 109]', 'fraction unbound at 2000 ng/ml', 0.52);

* * *

Experiment: PK, tissue distribution, excretion and metabolism of compound 109 in mice
Format: in vivo
Settings: mouse, in vivo, iv, 3 mg/kg
reported_metric: Cmax (µg/mL)

INSERT INTO measurements (compound, value_units, val) VALUES
  ('CC(C)=CCC/C(C)=C/CNCCNC1C2CC3CC(C2)CC1C3 (stereo not shown) [Compound 109]', 'µg/mL', 1.04);

* * *

Assay: in vivo
Design: species or system mice
Conditions: mouse, iv, 3 mg/kg
Listed here are molecules together with their documented Cmax.
reported_metric: Cmax (ng/mL)

INSERT INTO measurements (molecule, reported_metric, val) VALUES
  ('C[C@@H]1[C@H]2C[C@@H](C[C@H]1NCCNC1CCCCCCC1)C2(C)C', 'Cmax', 296),
  ('CC1(C)C2CCC(CNCCNCC(c3ccccc3)c3ccccc3)[C@@H]1C2 (stereo partly drawn)', 'Cmax', 970),
  ('CC(C)=CCC/C(C)=C/CNCCNC1C2CC3CC(C2)CC1C3 (stereo not drawn)', 'Cmax', 1190);

* * *

Test: in vivo
Set-up: species or system mice
Conditions: mouse, ip, 6 mg/kg
reported_metric: Cmax (ng/mL)

INSERT INTO measurements (molecule, val) VALUES
  ('CC1(C)C2CCC(CNCCNCC(c3ccccc3)c3ccccc3)[C@@H]1C2 (stereo partly drawn)', 630),
  ('C[C@@H]1[C@H]2C[C@@H](C[C@H]1NCCNC1CCCCCCC1)C2(C)C', 217),
  ('CC(C)=CCC/C(C)=C/CNCCNC1C2CC3CC(C2)CC1C3 (stereo not drawn)', 935);

* * *

Listed here are compounds together with their documented MIC.
Test system: H37Rv strain of Mycobacterium tuberculosis
Assay: microbe, parasite or virus in culture
Assay type: cell-based
Settings: Mycobacterium tuberculosis, H37RV; read-out: MIC
reported_metric: MIC (µM)

INSERT INTO results (compound, val) VALUES
  ('CCOCCCNCCNCC(c1ccccc1)c1ccccc1 [Compound 107]', 500),
  ('c1ccc(C2CC2NCCNC23CC4CC(CC(C4)C2)C3)cc1 (centres unmarked) [Compound 65]', 15.6),
  ('CC(CNC[C@@H]1CCC2C[C@@H]1C2(C)C)NCC1CCC2C[C@@H]1C2(C)C (some centres unmarked) [Compound 125]', 15.6),
  ('Fc1cccc(CCNCCNCCc2ccccc2Cl)c1 [Compound 119]', 125),
  ('CCC1CCCCN1CCNC/C=C(\C)CCC=C(C)C (centres unmarked) [Compound 111]', 7.81);
